system_under_test: CCK (gallbladder) receptor (Cavia porcellus, UniProt Q63931)
Construct: Isolated, strip preparations were prepared from gall-bladders removed from male Dunkin-Hartley guinea-pigs; from tissue; host or cells: guinea-pig gall-bladder strips
procedure_text: CCK-receptor bioassay, isolated guinea-pig gall-bladder strip preparations, CCK-8 as agonist
Type: cell-based, male Dunkin-Hartley guinea-pigs
run_parameters: negative log10 of equilibrium dissociation constant; guinea-pig gall-bladder strips; CCK-8 agonist; test compound incubated for 60 minutes; 37° C; read-out: pKB versus CCK (gallbladder) (converted)
Please mark satisfied if the recorded Kb is equal to or greater than 0.4 µM, and not satisfied if it falls below.

As a guide, the following entries are already answered.
CCCCCN(CCCCC)C(=O)[C@H](CCC(=O)O)NS(=O)(=O)c1ccc2ccccc2c1; satisfied
CCCCN(CCCC)C(=O)[C@H](CC(=O)O)NS(=O)(=O)c1ccc2ccccc2c1; satisfied
CCCCCN(CCCCC)C(=O)[C@@H](CCC(=O)O)NS(=O)(=O)c1ccc2ccccc2c1; satisfied
CCCCCC(CCCCC)NC(=O)[C@H](CC(=O)O)NS(=O)(=O)c1ccc2ccccc2c1; not satisfied
CCCCCCN(C)C(=O)[C@H](CC(=O)O)NS(=O)(=O)c1ccc2ccccc2c1; not satisfied

Determine whether this compound has Kb no lower than 0.4 µM: O=C(O)C[C@H](NS(=O)(=O)c1ccc2ccccc2c1)C(=O)NCC12CC3CC(CC(C3)C1)C2
not satisfied

Determine whether this compound has Kb no lower than 0.4 µM: CC(C)(C)CCNC(=O)[C@H](CC(=O)O)NS(=O)(=O)c1ccc2ccccc2c1
satisfied

###

system_under_test: CCKB receptor (Mus musculus)
Construct: CCKB receptor in mouse cortical membranes; from tissue; host or cells: mouse cerebral cortex membranes (male mice, Charles River)
Sequence (P56481 whole entry): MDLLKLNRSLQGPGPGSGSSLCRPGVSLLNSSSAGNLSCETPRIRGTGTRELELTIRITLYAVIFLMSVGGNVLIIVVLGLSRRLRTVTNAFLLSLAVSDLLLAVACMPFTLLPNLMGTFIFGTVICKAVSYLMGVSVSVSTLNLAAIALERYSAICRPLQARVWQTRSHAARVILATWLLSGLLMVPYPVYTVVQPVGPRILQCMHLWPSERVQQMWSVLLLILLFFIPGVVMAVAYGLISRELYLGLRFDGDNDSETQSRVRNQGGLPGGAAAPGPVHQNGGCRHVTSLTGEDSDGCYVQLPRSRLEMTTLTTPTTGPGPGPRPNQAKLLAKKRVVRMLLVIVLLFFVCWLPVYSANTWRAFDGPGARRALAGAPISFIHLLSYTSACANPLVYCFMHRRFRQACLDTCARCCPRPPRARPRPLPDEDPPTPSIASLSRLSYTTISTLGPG
procedure_text: CCKB radioligand binding assay in mouse cortical membranes, [125I] CCK-8S (selectivity testing)
Design: species or system male mice
run_parameters: [125I] CCK-8S 200 pM, 150 min at 21°, pH 7.2, non-specific binding L-365,260, read-out: pKi CCKB (converted)
Sorting guide: entries reporting Ki beneath 20 µM go in the 1.0 pile, the rest go in the 0.0 pile.

CCCCN(CCCC)C(=O)[C@H](CC(=O)O)NS(=O)(=O)c1ccc2ccccc2c1; 0.0
CCCCCNC(=O)[C@H](CC(=O)O)NS(=O)(=O)c1ccc2ccccc2c1; 0.0

For O=C(O)C[C@H](NS(=O)(=O)c1ccc2ccccc2c1)C(=O)NCCC12CC3CC(CC(C3)C1)C2 , is the recorded Ki below the cut-off of 20 µM?
1.0

For O=C(O)C[C@H](NS(=O)(=O)c1ccc2ccccc2c1)C(=O)NCC12CC3CC(CC(C3)C1)C2 , is the recorded Ki below the cut-off of 20 µM?
1.0

For O=C(O)C[C@H](NS(=O)(=O)c1ccc2ccccc2c1)C(=O)N1CC2CCC(CC2)C1 , is the recorded Ki below the cut-off of 20 µM?
0.0

###

system_under_test: CCKA (Cavia porcellus, UniProt Q63931)
Construct: The pancreatata were removed from male guinea-pigs (200-300 g; Dunkin Hartley); from tissue; host or cells: guinea-pig pancreas membranes
Sequence (Q63931 whole entry): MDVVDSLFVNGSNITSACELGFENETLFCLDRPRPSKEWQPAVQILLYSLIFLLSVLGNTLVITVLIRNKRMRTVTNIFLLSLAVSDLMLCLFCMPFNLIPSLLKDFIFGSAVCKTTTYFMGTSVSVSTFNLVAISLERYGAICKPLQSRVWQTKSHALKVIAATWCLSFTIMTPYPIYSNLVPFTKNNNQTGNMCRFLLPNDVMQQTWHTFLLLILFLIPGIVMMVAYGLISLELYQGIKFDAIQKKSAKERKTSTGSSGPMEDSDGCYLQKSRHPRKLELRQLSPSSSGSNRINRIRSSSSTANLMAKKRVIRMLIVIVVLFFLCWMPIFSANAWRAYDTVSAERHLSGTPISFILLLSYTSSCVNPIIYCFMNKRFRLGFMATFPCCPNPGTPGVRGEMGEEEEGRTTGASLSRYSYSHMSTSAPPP
procedure_text: CCKA binding assay, pancreas membranes, [125I]-CCK8(S)
Design: species or system male guinea-pigs (Dunkin Hartley)
run_parameters: guinea-pig pancreas membranes; [125I]-CCK8(S) 200 pM; 0.375 μM PD134,308; 150 minutes at 21°; non-specific binding 100 nM L-364,718; read-out: pKi CCKλ (converted)
Give Ki for every item shown.
Give bare numbers, in nM.

O=C(O)C[C@H](NS(=O)(=O)c1ccc2ccccc2c1)C(=O)NC1CCCCCCCCCCC1; 39.8

Quick batch: Ki for everything below.
1. CCCCCC(CCCCC)NC(=O)[C@H](CC(=O)O)NS(=O)(=O)c1ccc2ccccc2c1
2. O=C(O)C[C@H](NS(=O)(=O)c1ccc2ccccc2c1)C(=O)NCC12CC3CC(CC(C3)C1)C2
3. O=C(O)C[C@H](NS(=O)(=O)c1ccc2ccccc2c1)C(=O)N1CCC2(CCCC2)CC1
4. CCCCCN(CCCCC)C(=O)[C@@H](CC(=O)O)NS(=O)(=O)c1ccc2ccccc2c1
5. CC(C)(C)CCNC(=O)[C@H](CC(=O)O)NS(=O)(=O)c1ccc2ccccc2c1
6. CCCCCCN(C)C(=O)[C@H](CC(=O)O)NS(=O)(=O)c1ccc2ccccc2c1

[398, 50.1, 6310, 631, 501, 3160]

Suppose we examine the molecule CCCCCN(CCCCC)C(=O)[C@@H](CCC(=O)O)NS(=O)(=O)c1ccc2ccccc2c1 ; what Ki value has been reported?
158

###

system_under_test: CCKB receptor (Mus musculus)
Construct: CCKB receptor in mouse cortical membranes; from tissue; host or cells: mouse cerebral cortex membranes (male mice, Charles River)
procedure_text: CCKB radioligand binding assay in mouse cortical membranes, [125I] CCK-8S (selectivity testing)
Design: species or system male mice
run_parameters: [125I] CCK-8S 200 pM, 150 min at 21°, pH 7.2, non-specific binding L-365,260, read-out: pKi CCKB (converted)
reported_metric: Ki (µM)
One number for each entry, in µM.

Please review the following examples before continuing.
CCCCCN(CCCCC)C(=O)[C@H](CCC(=O)O)NS(=O)(=O)c1ccc2ccccc2c1; 3.16
O=C(O)C[C@H](NS(=O)(=O)c1ccc2ccccc2c1)C(=O)N1CCC2(CCCC2)CC1; 10
CCCCCN(CCCCC)C(=O)[C@@H](CCC(=O)O)NS(=O)(=O)c1ccc2ccccc2c1; 3.98
CCCCCN(CCCCC)C(=O)[C@H](CC(=O)O)NS(=O)(=O)c1ccc2ccccc2c1; 7.94
CCCCCCN(C)C(=O)[C@H](CC(=O)O)NS(=O)(=O)c1ccc2ccccc2c1; 50.1
CCCCCN(CCCCC)C(=O)[C@@H](CC(=O)O)NS(=O)(=O)c1ccc2ccccc2c1; 3.16

Quick batch: Ki for everything below.
1. CC(C)(C)CCNC(=O)[C@H](CC(=O)O)NS(=O)(=O)c1ccc2ccccc2c1
2. CCCCCN(CCCCC)C(=O)[C@H](CC(=O)O)NS(=O)(=O)c1cccc2ccccc12
3. O=C(O)C[C@H](NS(=O)(=O)c1ccc2ccccc2c1)C(=O)NC1CCCCCCCCCCC1
4. CCCCCOC(=O)[C@H](CC(=O)O)NS(=O)(=O)c1ccc2ccccc2c1
5. CCCCCCN(CCCCCC)C(=O)[C@H](CC(=O)O)NS(=O)(=O)c1ccc2ccccc2c1
6. CCCCCC(CCCCC)NC(=O)[C@H](CC(=O)O)NS(=O)(=O)c1ccc2ccccc2c1

25.1
10
10
20
5.01
3.98

Suppose we examine the compound O=C(O)C[C@H](NS(=O)(=O)c1ccc2ccccc2c1)C(=O)NCCC1CCCCC1 ; what Ki value has been reported?
25.1
